Biological target: HLA-DR DRB1*1302 (DR13) (Homo sapiens, UniProt P01903+P01911, A100E/A169T/K41T/L162R/M171V/P40S/Q125H/Q178H/Q39Y/Q99D/R42S/S66N/T262R/V115G/W38E/Y61H)
Sequence (P01903 26-254 limits assumed, other chains not shown): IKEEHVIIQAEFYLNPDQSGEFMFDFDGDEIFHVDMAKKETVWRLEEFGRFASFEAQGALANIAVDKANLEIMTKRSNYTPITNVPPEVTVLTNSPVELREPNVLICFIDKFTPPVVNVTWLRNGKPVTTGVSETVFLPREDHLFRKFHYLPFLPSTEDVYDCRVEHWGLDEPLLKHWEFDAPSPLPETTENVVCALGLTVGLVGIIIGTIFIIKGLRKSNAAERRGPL
Experiment: biochemical
Type: binding
Settings: DRBI *1302
MEASUREMENT_KIND: IC50 (µM)
Provide the reading as a plain figure in µM.

{"columns": ["COMPOUND", "OBSERVED_MEASUREMENT"],
 "data": [
  ["CC[C@H](C)[C@H](NC(=O)[C@@H]1CCCN1)C(=O)N[C@@H](CC(C)C)C(=O)N[C@@H](CC(C)C)C(=O)N[C@@H](Cc1c[nH]c2ccccc12)C(=O)N[C@@H](CCC(N)=O)C(=O)N1CCC[C@H]1C(=O)N[C@H](C(=O)N1CCC[C@H]1C(=O)N[C@H](C(=O)N[C@@H](Cc1c[nH]cn1)C(=O)N[C@H](C(=O)N[C@H](C(=O)N1CCC[C@H]1C(=O)N[C@@H](CC(C)C)C(=O)O)C(C)C)[C@@H](C)O)C(C)C)[C@@H](C)CC", 0.567]
]}

Could you now consider this next compound?
Query `CSCC[C@H](NC(=O)[C@H](CC(=O)O)NC(=O)[C@H](Cc1ccc(O)cc1)NC(=O)[C@H](CC(C)C)NC(=O)[C@@H]1CCCN1C(=O)[C@H](Cc1c[nH]cn1)NC(=O)[C@@H]1CCCN1)C(=O)N[C@@H](CO)C(=O)N[C@@H](CC(C)C)C(=O)N[C@@H](CC(C)C)C(=O)N[C@@H](CCCCN)C(=O)N[C@@H](CC(N)=O)C(=O)N[C@@H](CCCNC(=N)N)C(=O)N[C@@H](Cc1ccccc1)C(=O)N[C@@H](CC(C)C)C(=O)O` yields IC50 of 11.7
